molecular target: human Claudin18.2 (human); assay: cell-based or functional assay
# ADCC EC50 listing for each entry below
Numeric answer plus unit only.

# binder, ADCC EC50
measured = [
    ("chimeric 419B5G9 (antibody, human IgG1, kappa, V domains shown, chimeric, human IgG1/kappa constant regions) VH: DVQLVESGGGLVQPGGSRKLSCAASGFTFSTFGMHWVRQAPEKGLEWVAYISGGSTTIFYADTVKGRFTISRDNPKNTLFLQMTSVRSEDTAMYYCARFYYGNSFAYWGPGTLVTVST VL: DIVMTQSPSSLTVTAGEKVTMSCKSSQSLLNSGNQKNYLTWYQQKPGQPPKMLIYWASTRESGVPDRFTGSGSGTDFTLTISSVQAEDLAVYYCQNAYSYPLTFGAGTKLELKR", "0.00794 µg/mL"),
]

Now look at this one.
Ask: Specify measured ADCC EC50 for chimeric 260G9E8 (antibody, human IgG1, kappa, V domains shown, chimeric, human IgG1/kappa constant regions) VH: QADLQQSGAELVRSGASVKMSCKASGYTFASHNMHWVKQTPGQGLEWIGYIYPGNGGTKYNQKFTGKATLTADTSSSTAYMQITSLTSEDSAVYFCARDYYGNSFAYWGQGTLVTVSA VL: DIVMTQSPSSLTEKAGEKVSMRCKSSQSLLNSGNQKNYLTWYQQKPGQPPKLLIYWASTRESGVPDRFTGSGSGTDFTLTISSVQADDLAVYYCQNDYMFPFTFGAGTKLELKR .
Result: 0.024 µg/mL
